Reported pIC50 values are given for each entry in this list.
# Test system: MCF7
# assayNotes: Antiproliferative activity against human MCF7 cells assessed as reduction in cell viability measured after 24 hrs by MTT assay
# Type: functional, cell-based
# settings: MCF7, 24 h
pIC50: −log10 of the molar value.

mol	target	valuePrefix	pIC50
N#Cc1ccc(Oc2cccc(CNc3cc4c(cn3)[nH]c3ccccc34)c2)cc1	MCF7	=	7.33
c1ccc2c(c1)[nH]c1cnc(NCc3ccoc3)cc12	MCF7	=	7.15
c1cc(CNc2cc3c(cn2)[nH]c2ccccc23)cc(Oc2ccc3c(c2)OCCO3)c1	MCF7	<	6.30
Fc1cccc(Oc2cccc(CNc3cc4c(cn3)[nH]c3ccccc34)c2)c1	MCF7	=	7.23
c1cc(CNc2cc3c(cn2)[nH]c2ccccc23)cc(Oc2ccc3c(c2)OCO3)c1	MCF7	=	8.05
c1ccc2c(CNc3cc4c(cn3)[nH]c3ccccc34)c[nH]c2c1	MCF7	<	6.30
CC(C)CCOc1cccc(CNc2cc3c(cn2)[nH]c2ccccc23)c1	MCF7	<	6.30
c1ccc2c(CNc3cc4c(cn3)[nH]c3ccccc34)cccc2c1	MCF7	<	6.30
CC(C)(C)CC(C)(C)c1ccc(Oc2cccc(CNc3cc4c(cn3)[nH]c3ccccc34)c2)cc1	MCF7	<	6.30
CCCNc1cc2c(cn1)[nH]c1ccccc12	MCF7	<	6.30
